system: DeltatarO mutant; assay: S. aureus survival, RN4220 and DeltatarO strains – OD600, teichoic acid synthesis inhibitors, primary screen (AID 463173); settings: S. aureus RN4220 wild type/DeltatarO growth, OD600, 18 h, screened at 18.75 µg/mL (by protocol)
Hit rate of the full screen: of about 52,000 compounds, about 4,300 (8.3%) were called active. Rule as the data show it: active = survival mostly below about 52% (no sharp cut-off); inactive = mostly above about 56%. This is one part of a sample in which actives are shown more often than they occur.
Outcomes: active, inactive

# compound, testSystem, categoryLabel
data = [
    ("COc1ccccc1CNC(=O)CSc1nc(=O)[nH]c2c1CCC2", "DeltatarO mutant", "inactive"),
    ("O=C(Nc1ccc(OC(F)(F)F)cc1)c1noc2c1CCCC2", "DeltatarO mutant", "inactive"),
    ("COC(=O)c1c(N)n(-c2ccc(OC)c(OC)c2)c2nc3ccccc3nc12", "DeltatarO mutant", "inactive"),
    ("CCOC(=O)c1ccc(NC(=O)c2csc3c2CCCCC3)cc1", "DeltatarO mutant", "active"),
    ("CCOC(=O)c1ccc(NC(=O)c2c(NCc3sccc3C)sc3c2CCCCC3)cc1", "DeltatarO mutant", "inactive"),
    ("CC1CCN(S(=O)(=O)c2ccc3c(c2)N(CC(=O)NCC(C)c2ccccc2)C(=O)CO3)CC1 (stereo not given)", "DeltatarO mutant", "inactive"),
    ("COc1ccc(CNC(=O)Cc2c(C)c3cc4c(C)coc4c(C)c3oc2=O)cc1OC", "DeltatarO mutant", "inactive"),
    ("COc1cc(-c2nc3sccn3c2Nc2c(C)cccc2C)ccc1O", "DeltatarO mutant", "inactive"),
    ("CCOC(=O)c1cc(-c2ccc(OC)cc2)n(CCC(=O)NC2CCCCC2)c1C", "DeltatarO mutant", "inactive"),
    ("CCOC(=O)c1ccc(NC(=O)c2csc3c2CCCC3)cc1", "DeltatarO mutant", "active"),
]

====

tested on: DeltatarO mutant; assay: S. aureus survival, RN4220 and DeltatarO strains – OD600, teichoic acid synthesis inhibitors, primary screen (AID 463173); settings: S. aureus RN4220 wild type/DeltatarO growth, OD600, 18 h, screened at 18.75 µg/mL (by protocol)
The whole screen tested about 52,000 compounds, of which about 4,300 (8.3%) were called active. Cut-off read from the data, not from the text of the source: active = survival mostly below about 52% (no sharp cut-off); inactive = mostly above about 56%. For the sample, actives were picked, then their nearest neighbours and some compounds at random.
Outcomes: active, inactive

# compound, categoryLabel
records = [
    ("COc1ccc(C)cc1NC(=O)c1ccc2c(SCC(=O)O)c3c(nc2c1)CCCC3", "inactive"),
    ("COc1ccc(OC)c(NC(=O)CSc2cn(CC(=O)N3CCOCC3)c3ccccc23)c1", "inactive"),
    ("CCOc1ccc(CNC(=O)c2ccc3c(Cl)c4c(nc3c2)CCCC4)cc1", "inactive"),
    ("CCCCN1C(=O)c2[nH]nc(-c3ccccc3O)c2C1c1cc(Br)c(O)c(OC)c1 (stereo unspecified)", "active"),
    ("COc1ccc(NC(=O)NC2COc3ccccc3C2)cc1Cl (stereo unspecified)", "inactive"),
    ("Cc1nc(-c2ccc(F)cc2)sc1CCNC(=O)c1ccccc1C(F)(F)F", "inactive"),
    ("COc1ccc(NC(=O)c2ccc3c(SCC(=O)O)c4c(nc3c2)CCCC4)c(OC)c1", "inactive"),
    ("CCOC(=O)c1c(C)n(-c2ccccc2)c2ccc(OC(=O)COc3ccccc3)cc12", "inactive"),
    ("Cc1ccc(NC(=O)Cn2cc(C(=O)C3CCCCC3)c3ccccc32)c(C)c1", "inactive"),
    ("O=C1CC(NC2CC2)C(=O)N1c1ccccc1 (stereo unspecified)", "inactive"),
    ("CCOc1ccccc1NC(=O)c1ccc2c(Cl)c3c(nc2c1)CCC3", "inactive"),
    ("Cc1cc(=O)[nH]c(SC(C)C(=O)Nc2ccccc2)n1 (stereo unspecified)", "inactive"),
    ("O=C(O)c1ccc(-n2c(/C=C\\c3ccc(O)cc3)nc3ccccc3c2=O)cc1", "active"),
    ("O=C(O)c1cc(-n2c(/C=C\\c3ccc(F)cc3)nc3ccccc3c2=O)ccc1Cl", "inactive"),
    ("Cc1c(C(=O)OCc2ccccc2)[nH]c2c1C(=O)CC(c1ccc(C(C)(C)C)cc1)C2 (stereo unspecified)", "inactive"),
    ("O=C(Nc1ccccc1F)c1ccc2c(Cl)c3c(nc2c1)CCC3", "active"),
    ("CCOc1ccc(-c2cc(C)n3nc(C(=O)Nc4cc(Cl)ccc4O)cc3n2)cc1", "inactive"),
    ("CCOC(=O)c1ccc(N2C(=O)c3n[nH]c(-c4cccs4)c3C2c2ccc(OC)cc2OC)cc1 (stereo unspecified)", "inactive"),
    ("CCCN1C(=O)c2[nH]nc(-c3ccccc3O)c2C1c1ccc(OCc2ccccc2)c(OCC)c1 (stereo unspecified)", "active"),
    ("CCc1ccc(-n2c(=O)c3cccnc3n2CC(=O)NCc2ccc(F)cc2)cc1", "inactive"),
    ("COc1ccccc1N1CCN(S(=O)(=O)c2c(C)sc3ncn(CC(=O)N(C)c4ccc(C(C)C)cc4)c(=O)c23)CC1", "inactive"),
]

Origin of measurements: PubChem BioAssay AID463173
